Assignment: determine reported IC50 for the given compounds.
experimental_system: nicotinic acetylcholine receptor (Rattus norvegicus, UniProt P09483+P12390)
Construct: the brains removed and the cerebral cortex dissected on ice; from tissue; host or cells: cerebral cortex synaptic membranes of male Sprague-Dawley rats
Sequence (P09483 31-630): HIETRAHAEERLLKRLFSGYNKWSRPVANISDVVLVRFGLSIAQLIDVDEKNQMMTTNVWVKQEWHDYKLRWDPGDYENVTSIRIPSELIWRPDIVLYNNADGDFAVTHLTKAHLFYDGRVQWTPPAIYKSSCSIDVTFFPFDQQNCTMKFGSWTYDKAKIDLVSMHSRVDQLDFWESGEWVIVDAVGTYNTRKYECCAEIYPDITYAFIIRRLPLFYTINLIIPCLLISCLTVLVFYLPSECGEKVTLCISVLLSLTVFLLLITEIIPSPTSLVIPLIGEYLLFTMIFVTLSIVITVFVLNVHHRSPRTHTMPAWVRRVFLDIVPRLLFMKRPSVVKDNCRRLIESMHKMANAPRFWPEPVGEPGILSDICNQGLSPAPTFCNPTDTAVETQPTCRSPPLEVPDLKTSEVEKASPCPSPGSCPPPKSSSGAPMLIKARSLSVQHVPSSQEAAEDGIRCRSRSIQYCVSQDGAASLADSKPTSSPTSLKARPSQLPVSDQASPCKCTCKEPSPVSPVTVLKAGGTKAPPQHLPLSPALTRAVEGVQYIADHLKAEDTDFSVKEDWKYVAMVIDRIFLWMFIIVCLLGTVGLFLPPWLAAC
Sequence (P12390 25-500): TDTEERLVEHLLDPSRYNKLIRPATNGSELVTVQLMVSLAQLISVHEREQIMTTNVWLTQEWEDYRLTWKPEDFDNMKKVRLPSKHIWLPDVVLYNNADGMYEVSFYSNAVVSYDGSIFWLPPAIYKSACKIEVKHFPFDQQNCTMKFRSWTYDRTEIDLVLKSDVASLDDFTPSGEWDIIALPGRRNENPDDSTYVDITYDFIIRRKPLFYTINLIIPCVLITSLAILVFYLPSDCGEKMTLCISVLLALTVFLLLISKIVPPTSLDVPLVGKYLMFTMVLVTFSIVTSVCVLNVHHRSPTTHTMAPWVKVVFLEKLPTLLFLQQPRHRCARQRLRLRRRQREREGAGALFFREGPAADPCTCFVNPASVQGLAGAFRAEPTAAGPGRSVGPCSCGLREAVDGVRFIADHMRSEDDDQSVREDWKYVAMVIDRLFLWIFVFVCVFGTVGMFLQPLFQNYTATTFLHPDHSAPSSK
measurement_notes: ^3 H-Nicotine binding/displacement, rat cerebral membranes
experimental_conditions: ^3 H-nicotine 1.9 nM, rat cerebral membranes; read-out: IC50, Nicotine
Just the number please, in nM, no unit attached.

Provide the reported IC50 (system: nicotinic acetylcholine receptor (Rattus norvegicus, UniProt P09483+P12390)) for CC#Cc1cncc(C2CCCN2C)c1 (stereo not shown) [R^5 = 5-(1-propynyl)] 29

Report IC50 under test system nicotinic acetylcholine receptor (Rattus norvegicus, UniProt P09483+P12390) for CN1CCCC1c1cncc(-c2ccc(O)c(F)c2)c1.O=C(O)/C=C/C(=O)O (stereo not shown) [R^5 = 3-fluoro-4-hydroxyphenyl, fumarate] . 29

# return IC50 of CN1CCCC1c1cncc(-c2cccc(Cl)c2)c1.O=C(O)/C=C/C(=O)O (stereo not shown) [R^5 = 3-chlorophenyl, fumarate] (system: nicotinic acetylcholine receptor (Rattus norvegicus, UniProt P09483+P12390)) 120

Give IC50; test system nicotinic acetylcholine receptor (Rattus norvegicus, UniProt P09483+P12390); compound CN1CCCC1c1cncc(-c2ccc(O)cc2)c1.O=C(O)/C=C/C(=O)O (stereo not shown) [R^5 = 4-hydroxyphenyl, fumarate] 5.4

---

System: ^3 H-Dopamine release, rat olfactory tubercles
measurement_notes: Ligand-stimulated ^3 H-dopamine release from rat olfactory tubercles
Type: cell-based
experimental_conditions: in vitro slices, 300 μM
Assignment: determine reported percent fractional release, ^3 H-Dopamine, Olfactory Tubercles for the given compounds.
Report as a plain number; the unit % is understood.

Give reported percent fractional release, ^3 H-Dopamine, Olfactory Tubercles value for CN1CCCC1c1cncc(-c2ccc(F)cc2)c1.O=C(O)/C=C/C(=O)O (stereo not drawn) [A = CH2; R^7 = CH3; R^5 = 4-fluorophenyl] 2.68

Kindly indicate its recorded percent fractional release, ^3 H-Dopamine, Olfactory Tubercles. Item: CN1CCCC1c1cncc(-c2ccc(O)c(F)c2)c1.O=C(O)/C=C/C(=O)O (stereo not drawn) [R^5 = 3-fluoro-4-hydroxyphenyl] 7.07

Determine from records and report percent fractional release, ^3 H-Dopamine, Olfactory Tubercles for CN1CCCC1c1cncc(-c2ccc(O)cc2)c1.O=C(O)/C=C/C(=O)O (stereo not drawn) [R^5 = 4-hydroxyphenyl] 6.62

Respond only with percent fractional release, ^3 H-Dopamine, Olfactory Tubercles recorded for COc1ccc(-c2cncc(C3CCCN3C)c2)cc1F.O=C(O)/C=C/C(=O)O (stereo not drawn) [R^5 = 3-fluoro-4-methoxyphenyl] 2.3

Output percent fractional release, ^3 H-Dopamine, Olfactory Tubercles of Cc1ccc(-c2cncc(C3CCCN3C)c2)cc1.O=C(O)/C=C/C(=O)O (stereo not drawn) [R^5 = 4-methylphenyl] 1.0

Consider the compound CN1CCCC1c1cncc(-c2ccc(O)c(Cl)c2)c1.O=C(O)/C=C/C(=O)O (stereo not drawn) [R^5 = 3-chloro-4-hydroxyphenyl] . State its measured percent fractional release, ^3 H-Dopamine, Olfactory Tubercles. 11.4

---

experimental_system: nicotinic acetylcholine receptor (Rattus norvegicus, UniProt P09483+P12390)
Construct: the brains removed and the cerebral cortex dissected on ice; from tissue; host or cells: cerebral cortex synaptic membranes of male Sprague-Dawley rats
measurement_notes: ^3 H-Nicotine binding/displacement, rat cerebral membranes
experimental_conditions: IC50, Nicotine, ^3 H-nicotine 1.9 nM, rat cerebral membranes
measure: IC50
Answer format: value, then unit.

// fetch IC50 for CN1CCCC1c1cncc(C#CCCCCCCC#Cc2cncc(C3CCCN3C)c2)c1 (stereo not shown) ; system: nicotinic acetylcholine receptor (Rattus norvegicus, UniProt P09483+P12390) 5.2 nM
